Entry source: the supplement of paper PMC10126150

- Tested on: ATP;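 also: ATP exposure 15 min at 22 °C before imaging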
- assay-remarks: switch fluorescence ratio, 500 uM ATP over buffer (Cy3 cluster intensity, sum of 5 cycles each) (fold (ratio)); higher = stronger signal-on switching upon ATP binding; sequences stand for … in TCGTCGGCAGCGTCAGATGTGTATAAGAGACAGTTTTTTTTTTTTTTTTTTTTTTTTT…TC
- condition-details: aptamer strand: ATP DNA aptamer (quencher-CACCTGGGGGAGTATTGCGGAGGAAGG + anchor), 100 nM annealed; ATP concentration: 500 uM
measure-name: switch fluorescence ratio
Number, no unit, nothing else.

As a guide, the following entries are already answered.
- ordered-residues: "GTGGGTGTGT"
  data-value: 1.02
- ordered-residues: "ATTAGACGGA"
  data-value: 1.06
- ordered-residues: "CTGGGTGTGC"
  data-value: 1.01
- ordered-residues: "TTTTTCTCAG"
  data-value: 1.01

Entry ATGACAGGAT has what switch fluorescence ratio? 1

Could you share which switch fluorescence ratio value was measured for CCGGATATGG ? 1.14

Sample AATATTCTGT — what was its switch fluorescence ratio? 0.992

Please look up its switch fluorescence ratio: GAATACGGTT 1.26
